- experimental-details: Comments (NB not yet translated). [column 'COMMENTAIRES' in source]
- condition-details: human
outcome-measure: Hepatotoxicity (comment)

{"columns": ["compound", "endpoint-result"],
 "data": [
  ["COc1cc([C@@H]2c3cc4c(cc3[C@@H](O[C@@H]3O[C@@H]5CO[C@@H](c6cccs6)O[C@H]5[C@H](O)[C@H]3O)[C@H]3COC(=O)[C@H]23)OCO4)cc(OC)c1O [TENIPOSIDE]", "HNR"],
  ["C[C@]12COC(=O)C[C@@H]1CC[C@@H]1[C@@H]2CC[C@@]2(C)[C@H]1CC[C@]2(C)O", "HNF"]
]}
